Measurement record for Receptor-type tyrosine-protein kinase FLT3 (Homo sapiens, UniProt P36888, D835Y); quantity recorded: pIC50.
In plain terms, pIC50 is the concentration in mol/L turned into minus its base-10 logarithm.

See these solved cases before continuing.
- Substance Smiles: "CC(=O)Nc1ccc(-n2c(=O)cnc3cnc(Nc4ccc(N5CCN(C)CC5)cn4)cc32)cc1"
  Test Readout: "pIC50"
  Data Value: 6.24
- Substance Smiles: "Cc1cc(Nc2cc3c(cn2)ncc(=O)n3-c2ccc(N)cc2)ncc1N1CCN(S(C)(=O)=O)CC1"
  Test Readout: "pIC50"
  Data Value: 7.05
- Substance Smiles: "CN1CCN(c2ccc(Nc3cc4c(cn3)ncc(=O)n4-c3cccc(N)c3)nc2)CC1"
  Test Readout: "pIC50"
  Data Value: 6.14

Hi! What's the reported pIC50 for `Cc1cc(Nc2cc3c(cn2)ncc(=O)n3-c2ccc(N)cc2)ncc1N1CCC(F)(F)CC1` on Receptor-type tyrosine-protein kinase FLT3 (Homo sapiens, UniProt P36888, D835Y)?
6.92

Hi! What's the reported pIC50 for `CN1CCN(c2ccc(Nc3cc4c(cn3)ncc(=O)n4-c3ccc(N)cc3)cc2)CC1` on Receptor-type tyrosine-protein kinase FLT3 (Homo sapiens, UniProt P36888, D835Y)?
5.55
